Provenance of the data: ChEMBL document CHEMBL3885881

species: Rattus norvegicus; experiment: DrugMatrix - Regimen: Daily Repeat; assay type: toxicity, organism-based, Sprague-Dawley; parameters: regimen Daily Repeat, gender Male, age 6-8 weeks; settings: in vivo, po, 0 mg/kg, 72 h, tissue Blood, route oral GAVAGE, dose level Control, time 3 day, […]
property.measured: MEAN CORPUSCULAR VOLUME (fL)
Record the value in fL, omitting the unit from your answer.

In the examples that follow, each entry is paired with its recorded MEAN CORPUSCULAR VOLUME.
compound	unit.of.measure	MEAN CORPUSCULAR VOLUME
Clc1ccc(Cl)cc1	fL	68.57
CC(=O)Nc1ccc(O)cc1	fL	63.03
C[C@]12CC[C@@H]3c4ccc(O)cc4CC[C@H]3[C@@H]1CC[C@@H]2O	fL	63.3
CCOC(=O)C1=C(C)NC(C)=C(C(=O)OC)C1c1cccc([N+](=O)[O-])c1 (stereo not given)	fL	62.75
S=C=Nc1cccc2ccccc12 [1-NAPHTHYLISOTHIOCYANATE]	fL	65.62

Next item in the queue.
Problem: # query: MEAN CORPUSCULAR VOLUME of entry `O=C(O)Cc1ccccc1Nc1c(Cl)cccc1Cl`
Result: 61.62
